- Test system: VchCAST RNA-guided transposition machinery (E. coli BL21(DE3) host, lacZ target)
- test method notes: relative integration efficiency (T-LR orientation) vs wild-type transposon end (log2 (normalized fold change)); transposon end mutated: right end (5 bp flank + 75 bp right end); higher = more efficient transposition
Record satisfied whenever relative integration efficiency (log2) is at -0.7 or higher; record not satisfied when lower.

Consider the worked cases shown below.
Request: Check this sequence for relative integration efficiency (log2) at or above -0.7: ACATTTGTTGATACAACCATAAAATGATAATTACAACCATAAAATGATAATTATCATAATTATCATTTTATGGTTGCTCTGATCATAGTCAGACCAACATTGCTACGACCCGTATTCGCACCGACAC
Result: satisfied

Request: Do the same for ACATTTGTTGATACAACCATAAAATGATAATTACACCGTTAAATTGATAATTATCACACCCATAAATTGATATTGCCTCTGATCATAGTCAGACCAACATTGCTACGACCCGTATTCGCACCGACAC please
Result: not satisfied

New cases:
Request: Answer whether relative integration efficiency (log2) of ACATTTGTTGATACAACCATAAAATGATAATTAATAATTATTTATAATCAGCCACCCATAAATTGATAATTATCACACCCATAAATTGATATTGCCTCTGATCATAGTCAGACCAACATTGCTACGA is greater than or equal to -0.7.
Result: not satisfied

Request: ACATTTGTTGATACAACCATCAAATGGTAATTACACCCCTACATTGATAATTATCACACCCAATTTAACTATAACGCTCTGATCATAGTCAGACCAACATTGCTACGACCCGTATTCGCACCGACAC , same question.
Result: not satisfied

* * *

- Tested on: VchCAST RNA-guided transposition machinery (E. coli BL21(DE3) host, lacZ target)
- test method notes: relative integration efficiency (T-LR orientation) vs wild-type transposon end (log2 (normalized fold change)); transposon end mutated: right end (5 bp flank + 75 bp right end); higher = more efficient transposition
Group membership follows relative integration efficiency (log2) per the scheme low band (below -0.4), middle band (-0.4 to below 0.8), high band (0.8 or more)

Study these solved cases before continuing.
Request: Which category fits this record: ACATTTGTTGATACAACCATAAAACGATAATTACACCCATAAATGGATAATTATCACACCCAATTTAACTATAACGCTCTGATCATAGTCAGACCAACATTGCTACGACCCGTATTCGCACCGACAC
Result: high band

Request: Also need ACATTTGTTGATACAACCATAAAATGATAATTACACCCATTTTATGATAATTATCACACCCATAAATTGATATTGCCTCTGATCATAGTCAGACCAACATTGCTACGACCCGTATTCGCACCGACAC , thanks.
Result: high band

Request: Another sequence: ACATTTGTCGATCCAACCATAAAATGATAATTACACCCATAAATTGATCATTATCACACCCAATTTAACTATAACGCTCTGATCATAGTCAGACCAACATTGCTACGACCCGTATTCGCACCGACAC
Result: high band

Request: Same read-out for ACAAATGTTGATACAACCATAAAATGATAATTACACCCATAAATTGATAATTATCACACCCATAAATTGATATTGCCTCTGATCATAGTCAGACCAACATTGCTACGACCCGTATTCGCACCGACAC ?
Result: middle band

Request: Field entry: ACATTTGTTGATACAACCATAAAATGATAAGGCAACCCATAAATTGATAATTATCACACCCATAAATTGATATTGCCTCTGATCATAGTCAGACCAACATTGCTACGACCCGTATTCGCACCGACAC
Result: low band

Request: Item: ACATTTGTTGATACAACCATAAAATGCGCCTTACACCCATAAATTGATAATTATCACACCCATAAATTGATATTGCCTCTGATCATAGTCAGACCAACATTGCTACGACCCGTATTCGCACCGACAC
Result: low band

Further cases:
Request: Sort ACATTTGTTGATACAACCATATATTGATATCTCCAACCATATATTGATATCTCTCACACCCATAAATTGATAATTACTCTGATCATAGTCAGACCAACATTGCTACGACCCGTATTCGCACCGACAC into one of the categories.
Result: middle band

Request: Please do the same for ACATTTGTTGATACAACCATAAAAGTATAATTACACCCATAAATTGATAATTATCACACCCATAAATTGATATTGCCTCTGATCATAGTCAGACCAACATTGCTACGACCCGTATTCGCACCGACAC as well.
Result: low band

Request: Also, ACATTTGTTGATACACAACTAAAATGATAATTACACCCATAAATTGATAATTATCACACCCATAAATTGATATTGCCTCTGATCATAGTCAGACCAACATTGCTACGACCCGTATTCGCACCGACAC please.
Result: low band

* * *

- System: VchCAST RNA-guided transposition machinery (E. coli BL21(DE3) host, lacZ target)
- test method notes: relative integration efficiency (T-LR orientation) vs wild-type transposon end (log2 (normalized fold change)); transposon end mutated: right end (5 bp flank + 75 bp right end); higher = more efficient transposition
Quick reference for relative integration efficiency (log2) among some sequences
Hey, just send me the number, nothing else.

Some solved cases for reference:
Request: Bench note: what relative integration efficiency (log2) did ACATTTGTTGATACAACCATAAAATGATAATTACCCCCATAAATTGATAATTATCACACCCCATTTAACTATAACGCTCTGATCATAGTCAGACCAACATTGCTACGACCCGTATTCGCACCGACAC show?
Result: 2.09

Request: Moving on to the next sequence: ACATTTGTTGATACAACCATAAAGTGATATTTACAACCATAAGTTGATATTTTTCACAACCATATATTGATATCTCCTCTGATCATAGTCAGACCAACATTGCTACGACCCGTATTCGCACCGACAC
Result: 0.346

Request: What about ACATTTGTCGATACAACCCTAAAATGATAATTACACCCATAAATTCATCATTATCACACCCAATTTAACTATAACGCTCTGATCATAGTCAGACCAACATTGCTACGACCCGTATTCGCACCGACAC ?
Result: -1.06

Request: Input CAATTTGTTGATACAACCATAAAATGATAATTACACCCATAAATTGATAATTATCACACCCATAAATTGATATTGCCTCTGATCATAGTCAGACCAACATTGCTACGACCCGTATTCGCACCGACAC
Result: 0.164

Request: Query ACATTTGTTGATACAACCATAAAATGATAATTACACCCATAAATTGATCCGGCGACACAAACGCCCGGTCGCGGTAAGAGGATCATAGTCAGACCAACATTGCTACGACCCGTATTCGCACCGACAC next
Result: 2.09

Next:
Request: Which measured relative integration efficiency (log2) value corresponds to ACATTTGTTGATAAAACCATACGTTGATTTTAAGAAACCATACGCTGAAATAATCACACCCATAAATTGATATTGCCTCTGATCATAGTCAGACCAACATTGCTACGACCCGTATTCGCACCGACAC ?
Result: -3.87

Request: Let us now turn to ACATTTGTTGATACAACCATAAGTTGATATTTTCAACCATAAAATGATAATTATCACAACCATAAAATGATAATTACTCTGATCATAGTCAGACCAACATTGCTACGACCCGTATTCGCACCGACAC
Result: -0.774

* * *

Measured relative integration efficiency (log2), listed per entry.
- Tested on: VchCAST RNA-guided transposition machinery (E. coli BL21(DE3) host, lacZ target)
- test method notes: relative integration efficiency (T-RL orientation) vs wild-type transposon end (log2 (normalized fold change)); transposon end mutated: right end (5 bp flank + 75 bp right end); higher = more efficient transposition
API doc: respond with a numeric literal and nothing else, no unit.

Examples from the recorded data:
Request: Could you share which relative integration efficiency (log2) value was measured for ACATTTGTCGATACAACCATAAAATGATAATTACCACCCCTAAATTGATAATTATCACACCCATTTAACTATAACGCTCTGATCATAGTCAGACCAACATTGCTACGACCCGTATTCGCACCGACAC ?
Result: -3.12

Request: Next record, please: ACATTTGTTGATACAACCATAAAGTGATATTTACAACCATATATTGATATCTCTCACACCCATAAATTGATAATTACTCTGATCATAGTCAGACCAACATTGCTACGACCCGTATTCGCACCGACAC
Result: 0.065

Request: Try this sequence too: ACATTTGTTGATACAACCATAAAATGATCATTACACCCATCAATTGATAATTATCACACCCAATTTAACTATAACGCTCTGATCATAGTCAGACCAACATTGCTACGACCCGTATTCGCACCGACAC
Result: -2.98

Request: Check ACATTTGTTGATACAACCATAAAATGATAAGGCCACCCATAAATTGATAAGGCTCACACCCATAAATTGATATGTACTCTGATCATAGTCAGACCAACATTGCTACGACCCGTATTCGCACCGACAC too.
Result: -1.42

Next:
Request: # query: relative integration efficiency (log2) of entry ACATTTGTTGATACAACCATAAAATGATAATTACAGGCATAAATTGATAATTATCACACCCATAAATTGATATTGCCTCTGATCATAGTCAGACCAACATTGCTACGACCCGTATTCGCACCGACAC
Result: -0.00584

Taken from the supplement of paper PMC10201428.
